tested on: ACHN renal; assay: NCI tumour cell line growth inhibition, 48 h
EXPERIMENTAL READOUT: TGI

>>> value_observed("ClC1(Cl)C(c2ccccc2)C1c1ccccc1 (stereo not given)")
"89.7 µM"
>>> value_observed("c1ccc2c(C3CCN(CCN4CCOCC4)C3)c[nH]c2c1 (stereo not given)")
"> 100 µM"
>>> value_observed("CCOC(=O)C1=CN/C(=C(/C)C(=O)OC)SC1C(=O)OCC (stereo not given)")
"> 100 µM"
>>> value_observed("CCOC(=O)C(Cl)(NC(=O)NC(Cl)(C(=O)OCC)C(F)(F)F)C(F)(F)F (stereo not given)")
"> 100 µM"
>>> value_observed("COc1cc(S(=O)(=O)Nc2nc(-c3ccc(N4C(=O)C(CC(=O)O)SC4c4ccccc4O)cc3)cs2)ccc1Cl (stereo not given)")
"> 100 µM"
>>> value_observed("COc1cc2c[n+](C)c3c4cc5c(cc4ccc3c2cc1OC)OCO5")
"> 100 µM"
>>> value_observed("CCN(CC)C(=C(C(Cl)=C(Cl)Cl)[N+](=O)[O-])N(CC)CC")
"> 100 µM"
>>> value_observed("O=C1C(=O)c2c(oc(=O)c3ccccc23)-c2ccccc21")
"> 25 µM"
>>> value_observed("O=[N+]([O-])c1cccc(/C=N\\NS(=O)(=O)c2ccc(Cl)cc2)c1O")
"> 100 µM"
>>> value_observed("O=C1OC(CC(=O)c2ccc(Cl)c(Cl)c2)C(Cl)=C1Cl (stereo not given)")
"> 100 µM"
>>> value_observed("C=C1C(=O)O[C@H]2[C@H]1CC/C(CNC(=O)c1cc3cc(OC)ccc3[nH]1)=C\\CC[C@@]1(C)O[C@@H]21")
"2.84 µM"
>>> value_observed("CC(C)=CCC[C@@H](C)C1=C(O)C(O)C(C)=C2N=C(c3ccccc3)C(=O)OC21 (stereo not given in full)")
"> 13.7 µM"
>>> value_observed("CCCCCCCCCCCCCCCCCCNc1ccn(C2OC(COP(=O)(O)OC3CC(n4cc(F)c(=O)[nH]c4=O)OC3COP(=O)(O)OCC3OC(n4ccc(N)nc4=O)C(O)C3O)C(O)C2O)c(=O)n1 (stereo not given)")
"> 100 µM"
>>> value_observed("CCOC(=O)c1cc(C#N)c(=O)n(/N=C(\\C)c2ccncc2)c1O")
"> 100 µM"
>>> value_observed("CCC1(CC)C(=O)OC(=O)C1(CC)CC")
"> 100 µM"
>>> value_observed("COc1c2nc(CCl)[nH]c(=O)c2c(OC)c2nc(CCl)[nH]c(=O)c12")
"> 100 µM"
>>> value_observed("CCOC(=O)Nc1nc2ccc(Cn3cccc3)cc2[nH]1")
"> 100 µM"
>>> value_observed("CCCCOC(=O)NC(=O)c1cn(CCCOC(=O)CCCCCCCCC(=O)OCCCn2cc(C(=O)NC(=O)OCCCC)c(=O)[nH]c2=O)c(=O)[nH]c1=O")
"> 100 µM"
>>> value_observed("COc1ccc2cc(CNCCCCCCCCCCCCNCc3ccc4cc(OC)ccc4c3)ccc2c1")
"36.6 µM"
>>> value_observed("CCOC(=O)C(SCCO)C(C(=O)OCC)n1cnc2c(N)ncnc21 (stereo not given)")
"22.4 µM"

From: PubChem BioAssay (NCI)
